Tested on: SNB-19 CNS
Test: NCI tumour cell line growth inhibition, 48 h
# reported TGI; entries follow

compound: CN(C)CCOc1ccc(C(=O)C2[C@H](c3ccc(Cl)cc3)[C@@H](c3ccccc3)NC23C(=O)Nc2ccccc23)cc1 (some centres undefined)
unit-of-measurement: µM
bound-operator: >
TGI: 18.5
//
compound: O=C(/C=C/c1cccc(OCc2ccccc2)c1)c1nc2ccccc2[nH]1
unit-of-measurement: µM
bound-operator: =
TGI: 41.1
//
compound: O=c1[nH]c2ccccc2cc1CSc1ccc(Nc2nccc(-c3ccc(Cl)cc3)n2)cc1
unit-of-measurement: µM
bound-operator: =
TGI: 2.58
//
compound: C=C1CCC2C3(C)COC(c4ccc(F)cc4)OC3CCC2(C)C1C/C=C1/C(=O)OCC1O (centres undefined)
unit-of-measurement: µM
bound-operator: =
TGI: 16.9

###

System: NCI-H460 lung
Assay: NCI tumour cell line growth inhibition, 48 h
Reported TGI is given for each of the following compounds.

compound: O=c1[nH]c2ccccc2cc1CSc1ccc(Nc2nccc(-c3ccc(Cl)cc3)n2)cc1
system-under-test: NCI-H460 lung
bound-operator: =
TGI, µM: 1.42
--
compound: FC(F)(F)CN1CCN(CCn2c(C(F)(F)F)cc3c(Cl)ncnc32)CC1
system-under-test: NCI-H460 lung
bound-operator: =
TGI, µM: 6.73
--
compound: CN(C)CCOc1ccc(C(=O)C2[C@H](c3ccc(Cl)cc3)[C@@H](c3ccccc3)NC23C(=O)Nc2ccccc23)cc1 (stereo not given in full)
system-under-test: NCI-H460 lung
bound-operator: =
TGI, µM: 6.17
--
compound: O=C(/C=C/c1cccc(OCc2ccccc2)c1)c1nc2ccccc2[nH]1
system-under-test: NCI-H460 lung
bound-operator: >
TGI, µM: 100
--
compound: C=C1CCC2C3(C)COC(c4ccc(F)cc4)OC3CCC2(C)C1C/C=C1/C(=O)OCC1O (stereo not given)
system-under-test: NCI-H460 lung
bound-operator: =
TGI, µM: 5.48

###

Test system: HCC-2998 colon
Experiment: NCI tumour cell line growth inhibition, 48 h

smiles-record: O=c1[nH]c2ccccc2cc1CSc1ccc(Nc2nccc(-c3ccc(Cl)cc3)n2)cc1
GI50: 4050 nM
--
smiles-record: Cn1cc(-c2cc(N)n3nc(-c4cn(C)c5ccccc45)cc3n2)c2cc(Cl)ccc21
GI50: 1780 nM
--
smiles-record: O=C(/C=C/c1cccc(OCc2ccccc2)c1)c1nc2ccccc2[nH]1
GI50: 7190 nM
--
smiles-record: FC(F)(F)CN1CCN(CCn2c(C(F)(F)F)cc3c(Cl)ncnc32)CC1
GI50: 1830 nM

###

Test system: MDA-MB-468 breast
Assay: NCI tumour cell line growth inhibition, 48 h

compound: COc1ccc(CN2CCc3c(Cl)nc(N)nc3C2=O)c(OC)c1
system-under-test: MDA-MB-468 breast
TGI (µM): 33.1
//
compound: CCN(CC)CCn1c(=N)n(CC(O)c2ccc(Cl)c(Cl)c2)c2ccccc21 (centres undefined)
system-under-test: MDA-MB-468 breast
TGI (µM): 8.09
//
compound: N#Cc1c(N)nn(C(=O)c2ccc(NC(=O)c3ccccn3)cc2)c1-c1ccc(Cl)cc1
system-under-test: MDA-MB-468 breast
TGI (µM): 6.64
//
compound: O=c1[nH]c2ccccc2cc1CSc1ccc(Nc2nccc(-c3ccc(Cl)cc3)n2)cc1
system-under-test: MDA-MB-468 breast
TGI (µM): 3.14
